# protocol-conditions: in ethyl acetate, 278.15 K
measurement-label: solubility (mole fraction)
# print the numeric value only

For record CC(=O)c1c(C)c([N+](=O)[O-])c(C(C)(C)C)c([N+](=O)[O-])c1C the listed solubility (mole fraction) is 0.0641

* * *

# protocol-conditions: in ethanol, 298.15 K
measurement-label: solubility (mole fraction)
Quick one: just the number, no unit, thanks!

Form: compound = CC(=O)c1c(C)c([N+](=O)[O-])c(C(C)(C)C)c([N+](=O)[O-])c1C ; solubility (mole fraction) = 0.00426

* * *

# protocol-conditions: in methanol, 278.15 K
measurement-label: solubility (mole fraction)
Answer with a number only.

Sample CC(=O)c1c(C)c([N+](=O)[O-])c(C(C)(C)C)c([N+](=O)[O-])c1C ; solubility (mole fraction) observed: 0.00128
